src = PubChem BioAssay AID652154

# PROTOCOL_NOTES: PAX8 transcriptional activity inhibition in RMG-I – RMG-I cells, luciferase, single concentration, primary screen (AID 652154);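 further: luciferase light reporting Pax8 driven TPO promoter activity; plate controls were median of neutral control wells for no effect and mitoxantrone controls for full effect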
# EXPERIMENTAL_PARAMETERS: RMG-I TPO-luciferase reporter, SteadyGlo, 24 h; at 12.6 µM; stronger effect = higher value
About 4,200 (1.2%) of roughly 360,000 compounds were called active. The list comes from a sample in which actives are over-represented; it also holds close analogues and randomly drawn compounds.
PARAMETER_MEASURED: inhibition (%)
Your answer is read as %, so omit the unit and give the number.

[[record]]
compound = "C[C@H](CO)N1C[C@H](C)[C@@H](CN(C)Cc2ccccn2)Oc2ncc(-c3cccc(F)c3)cc2C1=O"
parameter_measured = "inhibition"
meas_value = -0.625

[[record]]
compound = "CC(=O)N1CCOc2ccc(S(=O)(=O)N3CCN(c4cccc(C(F)(F)F)c4)CC3)cc21"
parameter_measured = "inhibition"
meas_value = 92.2

[[record]]
compound = "Cc1csc(NC(=O)CSc2nc(=O)cc(N)n2-c2ccc(F)cc2)n1"
parameter_measured = "inhibition"
meas_value = -0.606

[[record]]
compound = "O=C(N[C@H]1CC[C@H](CCNS(=O)(=O)c2ccc(F)cc2)O[C@H]1CO)C1CCC1"
parameter_measured = "inhibition"
meas_value = 5.47

[[record]]
compound = "COc1ccnc(Oc2ccccc2)n1"
parameter_measured = "inhibition"
meas_value = -3.33

[[record]]
compound = "C[C@@H]1CN([C@H](C)CO)C(=O)c2cc(NS(=O)(=O)c3cccs3)ccc2O[C@@H](C)CCCCO[C@@H]1CN(C)S(=O)(=O)c1ccc(Cl)cc1"
parameter_measured = "inhibition"
meas_value = 32.3

[[record]]
compound = "COc1ccc(NC(=O)N(C)C[C@@H]2Oc3ccc(NC(=O)CCCN(C)C)cc3CC(=O)N([C@H](C)CO)C[C@H]2C)cc1"
parameter_measured = "inhibition"
meas_value = 2.7

[[record]]
compound = "C[C@H](CO)N1C[C@H](C)[C@@H](CN(C)Cc2ccncc2)Oc2ccc(NS(=O)(=O)c3ccc(Cl)cc3)cc2CC1=O"
parameter_measured = "inhibition"
meas_value = 20.9

[[record]]
compound = "CCOc1ccc(C(CC(=O)O)n2cnnn2)cc1OC (stereo not given)"
parameter_measured = "inhibition"
meas_value = 7.25


Now let's try a different one.
Given item "COCCNC(=O)C[C@H]1CC[C@H](NS(=O)(=O)c2ccc(C)cc2)[C@@H](CO)O1" , the value recorded as its inhibition is -3.36

====

# PROTOCOL_NOTES: PAX8 transcriptional activity inhibition in RMG-I – RMG-I cells, luciferase, single concentration, primary screen (AID 652154);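 further: luciferase light reporting Pax8 driven TPO promoter activity; plate controls were median of neutral control wells for no effect and mitoxantrone controls for full effect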
# EXPERIMENTAL_PARAMETERS: RMG-I TPO-luciferase reporter, SteadyGlo, 24 h; at 12.6 µM
About 4,200 (1.2%) of roughly 360,000 compounds were called active.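 The calls were made as follows: active = mean replicate inhibition at least 60% with every replicate also reaching 60%; inconclusive = only one of the two criteria is met; inactive = mean below 60% and not all replicates reaching 60%.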 Many of the other results were omitted from the sample, so actives are more common in it than they were.
Thanks in advance; please answer with one of these: True = active, False = inactive

Data request: Would you mind telling me which call this test gave "CCN1[C@@H]2c3cccc(=O)n3C[C@H]1[C@H](CO)[C@H]2C(=O)NC1Cc2ccccc2C1" ?
Data returned: False

Data request: Would you mind telling me which call this test gave COc1cccc(-c2ccc3c(c2)[C@@H]2[C@@H](CCN2S(=O)(=O)C2=NC(C)C=N2)[C@@H](CO)N3C)c1 (stereo partly drawn) ?
Data returned: False

Data request: Would you mind telling me which call this test gave "Cn1c(CCN2CCCC2)nc2cc(NS(=O)(=O)c3ccccc3)ccc21" ?
Data returned: True
